FYI, the data here is from patent US9452154B2.

system: NS3 GT1a mutant replicons; assay type: cell-based, HCV; details: mutant R155K
metric: fold change in EC50 vs wild-type GT1a (fold)
# value in fold; strip the unit string

Item "COC(=O)N[C@H](C(=O)N1CC2(CC2)C[C@H]1c1ncc(-c2ccc3c(c2)C(F)(F)c2cc(-c4ccc5nc([C@@H]6[C@H]7CC[C@H](C7)N6C(=O)[C@@H](NC(=O)OC)C(C)C)[nH]c5c4)ccc2-3)[nH]1)C(C)C" with NS3 GT1a mutant replicons - fold change in EC50 vs wild-type GT1a? 0.6

Please state recorded fold change in EC50 vs wild-type GT1a (tested on NS3 GT1a mutant replicons) of "CC(C)OC(=O)[C@H](C)N[P@](=O)(OC[C@H]1O[C@@](C#N)(c2ccc3c(N)ncnn23)[C@](C)(O)[C@@H]1OC(=O)C(C)C)Oc1ccccc1" 0.7

// map "CC1=CC[C@H](C(=O)N(c2cc(C#CC(C)(C)C)sc2C(=O)O)[C@H]2CC[C@](O)(CO[C@H]3CCOC3)CC2)CC1" to recorded fold change in EC50 vs wild-type GT1a (system: NS3 GT1a mutant replicons) 0.8

----------
tested on: NS3 GT1a mutant replicons; type: cell-based, HCV; settings: mutant D168Y
metric: fold change in EC50 vs wild-type GT1a (fold)
Answer with a number only, understood to be in fold.

Please look up its fold change in EC50 vs wild-type GT1a: "COC(=O)N[C@H](C(=O)N1CC2(CC2)C[C@H]1c1ncc(-c2ccc3c(c2)C(F)(F)c2cc(-c4ccc5nc([C@@H]6[C@H]7CC[C@H](C7)N6C(=O)[C@@H](NC(=O)OC)C(C)C)[nH]c5c4)ccc2-3)[nH]1)C(C)C" 0.8

# query: fold change in EC50 vs wild-type GT1a of entry "CC(C)OC(=O)[C@H](C)N[P@](=O)(OC[C@H]1O[C@@](C#N)(c2ccc3c(N)ncnn23)[C@](C)(O)[C@@H]1OC(=O)C(C)C)Oc1ccccc1" 1.0

Would you kindly share the measured fold change in EC50 vs wild-type GT1a for "CC1=CC[C@H](C(=O)N(c2cc(C#CC(C)(C)C)sc2C(=O)O)[C@H]2CC[C@](O)(CO[C@H]3CCOC3)CC2)CC1" ? 0.7

----------
Give measured CC50 at 3 days for each item. Keep answers brief.
assay: Biological Example 3: cytotoxicity (calcein AM), CC50; format: cell-based; details: human, Huh-7 cells carrying a HCV genotype 1a replicon; HCV genotype 1a replicon cells; calcein AM

Requested read-out: CC50 at 3 days. Entry: "CC(C)OC(=O)[C@H](C)N[P@](=O)(OC[C@H]1O[C@@](C#N)(c2ccc3c(N)ncnn23)[C@](C)(O)[C@@H]1OC(=O)C(C)C)Oc1ccccc1" > 44.4 µM

State the recorded CC50 at 3 days for this entry: "COc1ccc2c(O[C@@H]3C[C@H]4C(=O)N[C@]5(P(=O)(O)Cc6c(F)cccc6F)C[C@H]5CCCCCCC[C@H](NC(=O)OC5CCCC5)C(=O)N4C3)cc(-c3csc(NC(C)C)n3)nc2c1Cl" > 22.2 µM

I am curious: what CC50 at 3 days value has been reported for CC[C@@H]1C[C@]1(NC(=O)[C@@H]1C[C@@H](Oc2cc(-c3csc(NC(C)C)n3)nc3c(Cl)c(OCCN4CCOCC4)ccc23)CC1C(=O)[C@@H](NC(=O)O[C@@H]1C[C@@H]2C[C@@H]2C1)C(C)(C)C)C(=O)O (stereo partly shown) ? > 22.2 µM

Value lookup for CC50 at 3 days; key = "COC(=O)N[C@H](C(=O)N1CC2(CC2)C[C@H]1c1ncc(-c2ccc3c(c2)C(F)(F)c2cc(-c4ccc5nc([C@@H]6[C@H]7CC[C@H](C7)N6C(=O)[C@@H](NC(=O)OC)C(C)C)[nH]c5c4)ccc2-3)[nH]1)C(C)C" > 44.4 µM

Query: CC50 at 3 days; subject: "CC1=CC[C@H](C(=O)N(c2cc(C#CC(C)(C)C)sc2C(=O)O)[C@H]2CC[C@](O)(CO[C@H]3CCOC3)CC2)CC1" > 44.4 µM

Would you kindly share the measured CC50 at 3 days for "Fc1ccccc1-c1nc2ccn(Cc3ccc(-c4ccc(C(F)(F)F)cc4C(F)(F)F)nn3)cc-2n1" ? > 44.4 µM

I have this molecule here, NC(=O)c1ncn([C@@H]2O[C@H](CO)[C@@H](O)[C@H]2O)n1 [Ribavirin, reference compound] , and I need its recorded CC50 at 3 days. > 88.8 µM

----------
test system: NS3 GT1a mutant replicons; type: cell-based, HCV; settings: mutant R155K + M28T
Hi there, I'd appreciate the recorded fold change in EC50 vs wild-type GT1a for every entry that follows.
A number alone suffices; assume fold.

What value of measured fold change in EC50 vs wild-type GT1a is listed for "COC(=O)N[C@H](C(=O)N1CC2(CC2)C[C@H]1c1ncc(-c2ccc3c(c2)C(F)(F)c2cc(-c4ccc5nc([C@@H]6[C@H]7CC[C@H](C7)N6C(=O)[C@@H](NC(=O)OC)C(C)C)[nH]c5c4)ccc2-3)[nH]1)C(C)C" ? 12.3

Need fold change in EC50 vs wild-type GT1a of "CC(C)OC(=O)[C@H](C)N[P@](=O)(OC[C@H]1O[C@@](C#N)(c2ccc3c(N)ncnn23)[C@](C)(O)[C@@H]1OC(=O)C(C)C)Oc1ccccc1" , thanks. 0.2

GET /values?readout=fold change in EC50 vs wild-type GT1a&item= "CC1=CC[C@H](C(=O)N(c2cc(C#CC(C)(C)C)sc2C(=O)O)[C@H]2CC[C@](O)(CO[C@H]3CCOC3)CC2)CC1" 0.8

----------
test system: HCV 1b replicon system; assay: Biological Example 5: antiviral combination studies with Compound 6 (MacSynergy II); type: cell-based; conditions: in combination with Compound 6
metric: Interaction

NC(=O)c1ncn([C@@H]2O[C@H](CO)[C@@H](O)[C@H]2O)n1 [Ribavirin, reference compound]: Moderate Synergy
COc1ccc2c(O[C@@H]3C[C@H]4C(=O)N[C@]5(P(=O)(O)Cc6c(F)cccc6F)C[C@H]5CCCCCCC[C@H](NC(=O)OC5CCCC5)C(=O)N4C3)cc(-c3csc(NC(C)C)n3)nc2c1Cl [Compound 2]: Moderate Synergy

----------
tested on: NS3 GT1a mutant replicons; assay type: cell-based, HCV; settings: mutant R155K + Y93H
metric: fold change in EC50 vs wild-type GT1a

For NS3 GT1a mutant replicons, provide fold change in EC50 vs wild-type GT1a of "CC1=CC[C@H](C(=O)N(c2cc(C#CC(C)(C)C)sc2C(=O)O)[C@H]2CC[C@](O)(CO[C@H]3CCOC3)CC2)CC1" please. 0.6 fold

Fill in the recorded fold change in EC50 vs wild-type GT1a for this molecule, with NS3 GT1a mutant replicons as test system: CC[C@@H]1C[C@]1(NC(=O)[C@@H]1C[C@@H](Oc2cc(-c3csc(NC(C)C)n3)nc3c(Cl)c(OCCN4CCOCC4)ccc23)CC1C(=O)[C@@H](NC(=O)O[C@@H]1C[C@@H]2C[C@@H]2C1)C(C)(C)C)C(=O)O (stereo partly shown) >100 fold

# query: fold change in EC50 vs wild-type GT1a | item "CC(C)OC(=O)[C@H](C)N[P@](=O)(OC[C@H]1O[C@@](C#N)(c2ccc3c(N)ncnn23)[C@](C)(O)[C@@H]1OC(=O)C(C)C)Oc1ccccc1" | system: NS3 GT1a mutant replicons 0.3 fold

# value lookup — system NS3 GT1a mutant replicons, readout fold change in EC50 vs wild-type GT1a, item "COC(=O)N[C@H](C(=O)N1CC2(CC2)C[C@H]1c1ncc(-c2ccc3c(c2)C(F)(F)c2cc(-c4ccc5nc([C@@H]6[C@H]7CC[C@H](C7)N6C(=O)[C@@H](NC(=O)OC)C(C)C)[nH]c5c4)ccc2-3)[nH]1)C(C)C" >3000 fold

----------
test system: NS3 GT1a mutant replicons; type: cell-based, HCV; conditions: mutant R155K + Y488H (second line, r26)
metric: fold change in EC50 vs wild-type GT1a (fold)
State the answer as a number, implicitly in fold.

Value lookup for fold change in EC50 vs wild-type GT1a; key = CC(C)OC(=O)[C@H](C)N[P@](=O)(OC[C@H]1O[C@@](C#N)(c2ccc3c(N)ncnn23)[C@](C)(O)[C@@H]1OC(=O)C(C)C)Oc1ccccc1 [Compound 4] 0.5

Could you share which fold change in EC50 vs wild-type GT1a value was measured for COC(=O)N[C@H](C(=O)N1CC2(CC2)C[C@H]1c1ncc(-c2ccc3c(c2)C(F)(F)c2cc(-c4ccc5nc([C@@H]6[C@H]7CC[C@H](C7)N6C(=O)[C@@H](NC(=O)OC)C(C)C)[nH]c5c4)ccc2-3)[nH]1)C(C)C [Compound 6] ? 0.5

// lookup fold change in EC50 vs wild-type GT1a for CC1=CC[C@H](C(=O)N(c2cc(C#CC(C)(C)C)sc2C(=O)O)[C@H]2CC[C@](O)(CO[C@H]3CCOC3)CC2)CC1 [Compound 5] 0.6
